system: HBV; experiment: HBV inhibitory activity: HBV DNA in the culture medium of HepG2.2.15 cells by q-PCR; assay type: cell-based; conditions: HepG2.2.15 cells, 6 days of compound treatment, HBV DNA in culture medium by q-PCR, highest concentration 10 μM; read-out: EC50
Decide using EC50 alone. Strictly below 100 nM: label 1. Equal to or above 100 nM: label 0.

INSERT INTO results (compound, class_label) VALUES
  ('COC(=O)C1=C(C2CCN(S(=O)(=O)[C@H]3C[C@H](C(=O)O)C3)CC2)NC(c2nccs2)=NC1c1ccc(F)c(F)c1Cl (single isomer, unassigned) [Compound 232X]', 'label 0');

Dear colleague, could you confirm whether EC50 of COC(=O)C1=C(C2CCN(S(=O)(=O)C3CC(C)(C(=O)OC)C3)CC2)NC(c2nccs2)=NC1c1ccc(F)c(F)c1Cl (single isomer, unassigned) [Compound 323C] falls below 100 nM? Thanks.
label 1

Dear colleague, could you confirm whether EC50 of COC(=O)C1=C(C2CCN(C)C(=O)C2)NC(c2nccs2)=NC1c1ccc(F)cc1Cl (single isomer, unassigned) [Compound 1B] falls below 100 nM? Thanks.
label 1

Dear colleague, could you confirm whether EC50 of COC(=O)C1=C(C2CCCC(C(=O)O)CC2)NC(c2nccs2)=NC1c1ccc(F)cc1Cl (single isomer, unassigned) [Compound 95C] falls below 100 nM? Thanks.
label 0

###

system: HBV; assay: HBV inhibitory activity: HBV DNA in the culture medium of HepG2.2.15 cells by q-PCR; assay type: cell-based; conditions: HepG2.2.15 cells, 6 days of compound treatment, HBV DNA in culture medium by q-PCR, highest concentration 10 μM; read-out: EC50
Measurement label: EC50 (nM)
Form entry: value (nM) — number only.

INSERT INTO results (molecule, target, value_observed) VALUES
  ('CCOC(=O)C1=C(C2CCN(S(=O)(=O)C3CC(C)(C(=O)O)C3)CC2)NC(c2nccs2)=NC1c1cccc(F)c1Cl (single isomer, unassigned) [Compound 321B]', 'HBV', 60);

Here is the next item to consider.
Determine its reported EC50: COC(=O)C1=C(C2CCN(S(=O)(=O)C3CC(C)(C(=O)O)C3)CC2)NC(c2nccs2)=NC1c1cccc(F)c1Br (stereo not drawn) [Compound 278C]
45

###

system: HBV; experiment: HBV inhibitory activity: HBV DNA in the culture medium of HepG2.2.15 cells by q-PCR; type: cell-based; settings: HepG2.2.15 cells, 6 days of compound treatment, HBV DNA in culture medium by q-PCR, highest concentration 10 μM; read-out: EC50
Measurement label: pEC50
Units for pEC50: none; it is -log10 of a concentration expressed in mol/L.

Some molecules with recorded pEC50:
INSERT INTO results (molecule, target, measurement_label, value_observed) VALUES
  ('COC(=O)C1=C(C2CCN(S(C)(=O)=O)C2)NC(c2nccs2)=NC1c1ccc(F)cc1Cl (single isomer, unassigned) [Compound 65C]', 'HBV', 'pEC50', 6.42),
  ('COC(=O)C1=C(C2CCCN(S(C)(=O)=O)C2)NC(c2nccs2)=NC1c1ccc(F)cc1Cl (single isomer, unassigned) [Compound 33C]', 'HBV', 'pEC50', 6.32),
  ('COC(=O)C1=C(C2CCN(S(=O)(=O)CC3(C)CCC(C(=O)O)CC3)CC2)NC(c2nccs2)=NC1c1ccc(F)c(F)c1Cl (single isomer, unassigned) [Compound 452B]', 'HBV', 'pEC50', 8.30);

Determine its reported pEC50: COC(=O)C1=C(C2CCC(NS(C)(=O)=O)C2)NC(c2nccs2)=NC1c1cccc(F)c1Cl (single isomer, unassigned) [Compound 61B]
6.48

Determine its reported pEC50: CCOC(=O)C1=C(C2CCN(S(=O)(=O)[C@H]3C[C@H](C(=O)O)C3)CC2)NC(c2nccs2)=NC1c1ccc(F)c(F)c1C (single isomer, unassigned) [Compound 343A]
7.05

Determine its reported pEC50: COC(=O)C1=C(C2CCC(=O)N2)NC(c2nccs2)=NC1c1cccc(F)c1Cl (single isomer, unassigned) [Compound 75D]
7.35
